- system.tested: T1, EsCas13d, nuclease-dead (Eubacterium siraeum, UniProt B0MS50, R295A;H300A;R849A;H854A)
- T1 sequence: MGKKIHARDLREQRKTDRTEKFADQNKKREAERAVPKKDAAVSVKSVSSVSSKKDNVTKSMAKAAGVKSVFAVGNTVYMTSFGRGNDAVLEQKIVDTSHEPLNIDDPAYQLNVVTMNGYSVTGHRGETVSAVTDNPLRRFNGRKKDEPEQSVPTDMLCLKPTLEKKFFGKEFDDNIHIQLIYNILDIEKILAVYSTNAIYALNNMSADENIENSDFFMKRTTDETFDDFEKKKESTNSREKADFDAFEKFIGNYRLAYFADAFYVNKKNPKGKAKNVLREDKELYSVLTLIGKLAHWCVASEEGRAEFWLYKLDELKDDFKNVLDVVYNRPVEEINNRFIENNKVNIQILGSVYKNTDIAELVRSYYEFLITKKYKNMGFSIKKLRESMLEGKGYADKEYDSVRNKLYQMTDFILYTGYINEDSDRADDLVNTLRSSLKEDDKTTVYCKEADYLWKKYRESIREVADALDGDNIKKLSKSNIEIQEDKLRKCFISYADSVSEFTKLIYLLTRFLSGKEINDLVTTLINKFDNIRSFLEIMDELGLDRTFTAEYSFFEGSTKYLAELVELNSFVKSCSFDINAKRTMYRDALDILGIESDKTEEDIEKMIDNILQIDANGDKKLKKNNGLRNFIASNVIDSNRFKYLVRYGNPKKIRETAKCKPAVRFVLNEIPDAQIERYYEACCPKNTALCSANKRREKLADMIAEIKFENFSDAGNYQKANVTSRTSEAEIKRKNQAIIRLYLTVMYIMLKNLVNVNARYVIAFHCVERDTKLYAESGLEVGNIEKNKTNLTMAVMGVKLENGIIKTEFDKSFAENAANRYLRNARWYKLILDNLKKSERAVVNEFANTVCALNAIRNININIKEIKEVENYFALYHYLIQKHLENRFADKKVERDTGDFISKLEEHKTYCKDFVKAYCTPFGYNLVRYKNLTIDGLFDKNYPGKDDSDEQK
- assay.procedure: crRNA (strand 1, pre-loaded); Mg2+; 40 mM Tris-HCl pH 7.5, 150 mM NaCl, 6 mM MgCl2, 1 mM DTT, 0.1% Tween-20, 0.2 mg/ml BSA; 25 C; 10 min per concentration, then washed
- test.conditions: tags: His6-TwinStrep-SUMO cleaved; N-terminal SNAP kept (SNAP-Surface 488); label: 3' end held by stalled T7 RNA polymerase
pKd: −log10 of the molar value.
# key: entry, value: pKd
metric.name: pKd

>  <binder>
target 3 A5G,U7C (mixed) RNA 1: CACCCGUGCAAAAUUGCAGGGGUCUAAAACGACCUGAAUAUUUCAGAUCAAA RNA 2: GGGAAUGGAUCCACAUCUACGAAUUCGUUUUUGAUCUGAAAUAUCCGGGUCUGCAGAUCGGAAGAGCACACGU

>  <readout.number>
7.18

$$$$
>  <binder>
target 1 insU 3' of 14,insG 3' of 7 (mixed) RNA 1: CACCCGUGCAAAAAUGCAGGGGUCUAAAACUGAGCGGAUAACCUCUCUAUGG RNA 2: GGGAAUGGAUCCACAUCUACGAAUUCGUACCAUAGAGAUGGUUAUCGCGCUCACCGAGAUCGGAAGAGCACACGU

>  <readout.number>
7.53

$$$$
>  <binder>
target 3 C6U,U22G (mixed) RNA 1: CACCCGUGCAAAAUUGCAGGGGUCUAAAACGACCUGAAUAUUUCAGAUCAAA RNA 2: GGGAAUGGAUCCACAUCUACGAAUUCGUUGUUGAUCUGAAAUAUUUAGGUCUGCAGAUCGGAAGAGCACACGU

>  <readout.number>
7.29

$$$$
>  <binder>
target 1 MT 5'PFS CCG 3'PFS UAG (mixed) RNA 1: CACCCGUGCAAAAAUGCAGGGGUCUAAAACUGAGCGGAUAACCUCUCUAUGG RNA 2: GGGAAUGGAUCCACAUCUACGAAUUCCCGCCAUAGAGAGGUUAUCCGCUCAUAGAGAUCGGAAGAGCACACGU

>  <readout.number>
8.47

$$$$
